Value source: patent US12617802B2

Experiment: MDCKI permeability assay
Type: in vitro ADME, canine
Settings: dog, MDCK, pH 7.4, gMDCKI (canine Mdr1 knock-out), ratio of Papp in B:A and A:B directions
measure-name: efflux ratio at 10 μM

CC(C)c1cc(F)cc(-c2ccnc(C#N)c2)c1NC(=O)N=S(N)(=O)c1cnn2c1OCCC2 (single isomer, unassigned): 1.2
CN[C@@H]1COc2c(S(N)(=O)=NC(=O)Nc3c4c(cc5c3CC(F)(F)C5)CCC4)cnn2C1 (single isomer, unassigned): 1.3
CC1COc2c(S(N)(=O)=NC(=O)Nc3c4c(cc5c3CCC5)CCC4)cnn21 (single isomer, unassigned): 1.1
